Target: T1, human CC chemokine receptor 1 (human CCR1) (human, UniProt P32246 1-355)
T1 construct: endogenous on THP-1 cells in the migration assays; also called hCCR1; CHO-S-hCCR1 (expressing cells)
T1 sequence: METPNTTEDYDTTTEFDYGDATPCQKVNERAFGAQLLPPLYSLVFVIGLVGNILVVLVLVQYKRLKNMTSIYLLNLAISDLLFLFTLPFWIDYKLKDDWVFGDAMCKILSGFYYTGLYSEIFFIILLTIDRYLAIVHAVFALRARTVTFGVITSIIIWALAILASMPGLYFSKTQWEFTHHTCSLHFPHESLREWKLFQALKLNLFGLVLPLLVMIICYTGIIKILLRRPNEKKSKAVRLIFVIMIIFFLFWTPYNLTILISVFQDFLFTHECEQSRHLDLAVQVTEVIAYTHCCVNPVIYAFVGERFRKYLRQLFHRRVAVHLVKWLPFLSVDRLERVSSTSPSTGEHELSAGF
Assay: flow cytometry on CHO-S-hCCR1 cells; bound = fluorescence 10 times or more that of isotype control hzDNP1
Readout Kind: binding result

Binder	Result
hzKM5907 LV2bHV2b antibody (antibody, V domains shown, humanized; also called hzmAb5907 LV2bHV2b) VH: EVQLLESGGGLVQPGGSLRLSCAASGFTFSRYGMSWVRQAPGKGLEWVASISATFTYTYYTDNVKGRFTISRDNSKNTLYLQMNSLRAEDTAVYYCARQDNYAWFDSWGQGTLVTVSS VL: DIVMTQTPLSLPVTSGEPVSISCRSSQSIVHSNGNTFLEWYLKKPGQSPQLLIYKVSSRFSGVPDRFSGSGSGTDFTLKISRVEAEDVGVYYCFQGSHIPWTFGGGTKVEIK	binds
hzKM5907 LV1aHV0 antibody (antibody, V domains shown, humanized; also called hzmAb5907 LV1aHV0) VH: EVQLLESGGGLVQPGGSLRLSCAASGFTFSRYGMSWVRQAPGKGLEWVSSISATFTYTYYTDNVKGRFTISRDNSKNTLYLQMNSLRAEDTAVYYCAKQDNYAWFDSWGQGTLVTVSS VL: DIVMTQTPLSLPVTSGEPASISCRSSQSIVHSNGNTFLEWYLKKPGQSPQLLIYKVSSRFSGVPDRFSGSGSGTDFTLKISRVEAEDVGVYYCFQGSHIPWTFGGGTKVEIK	binds
hzmAb5-06 LV0HV17 antibody (antibody, V domains shown, humanized) VH: QVQLQQSGPGLVKPSQTLSITCTVSGFSLNNYGVHWVRQPPGKGLEWLGVIWSAGTTVYNAAAISRLTISKDDSKSQVSFKMSSLTAADTAIYYCAKDGSRYYTAMDYWGQGTLVTVSS VL: DIVMTQSPLSLPVTPGEPASISCRSSQSLVHRNGITFFHWYLQKPGQSPQLLIYKISNRFSGVPDRFSGSGSGTDFTLKISRVEAEDVGVYYCSQGTHVPPTFGQGTKVEIK	binds
